Origin of measurements: paper PMC9403717

# targetOrSystem: AKR1C3 (Homo sapiens, UniProt P42330)
# Construct: made in house
# Sequence (P42330 whole entry): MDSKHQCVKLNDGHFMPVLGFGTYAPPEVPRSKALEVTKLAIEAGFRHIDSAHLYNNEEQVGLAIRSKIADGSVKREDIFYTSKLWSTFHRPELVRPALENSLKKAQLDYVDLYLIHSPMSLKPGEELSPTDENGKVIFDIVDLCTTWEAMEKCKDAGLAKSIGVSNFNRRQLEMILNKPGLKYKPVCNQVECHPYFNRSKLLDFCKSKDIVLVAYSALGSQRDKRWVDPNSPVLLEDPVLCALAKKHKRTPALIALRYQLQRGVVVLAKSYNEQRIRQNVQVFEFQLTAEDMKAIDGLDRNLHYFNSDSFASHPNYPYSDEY
# protocolText: Inhibition of recombinant AKR1C3, oxidation of 1-acenaphthenol, progress-curve analysis
# Assay type: biochemical
# experimentalContext: AKR1C3; reversible binding to holoenzyme E-NAD; read-out: K2
pKi: −log10 of the molar value.

[
  {
    "compound": "Cc1ccc(C(C)C)cc1.O=C(C=C([O][Ru][Cl])c1ccc(I)cc1)C(F)(F)F [Compound 1]",
    "pKi": 3.98
  },
  {
    "compound": "C1N2CN3CN1CP(C2)C3.Cc1ccc(C(C)C)cc1.F[P-](F)(F)(F)(F)F.O=C(C=C([O][Ru+])c1ccc2c(c1)OCO2)C(F)(F)F [Compound 6]",
    "pKi": 4.03
  },
  {
    "compound": "CN(C)c1ccc(C(=CC(=O)C(F)(F)F)[O][Ru][Cl])cc1.Cc1ccc(C(C)C)cc1 [Compound 3]",
    "pKi": 3.75
  },
  {
    "compound": "CN(C)c1ccc(C(=O)C=C([O][Ru+][PH]23CN4CN(CN(C4)C2)C3)C(F)(F)F)cc1.Cc1ccc(C(C)C)cc1.F[P-](F)(F)(F)(F)F [Compound 4]",
    "pKi": 3.36
  },
  {
    "compound": "Cc1ccc(C(C)C)cc1.O=[N+]([O-])c1ccc([O][Ru][Cl])c2ncccc12 [Compound 9]",
    "pKi": 3.36
  },
  {
    "compound": "C1N2CN3CN1CP(C2)C3.Cc1ccc(C(C)C)cc1.F[P-](F)(F)(F)(F)F.O=C(C=C([O][Ru+])c1ccc(I)cc1)C(F)(F)F [Compound 2]",
    "pKi": 3.94
  },
  {
    "compound": "C1N2CN3CN1CP(C2)C3.Cc1ccc(C(C)C)cc1.F[P-](F)(F)(F)(F)F.O=[N+]([O-])c1ccc([O][Ru+])c2ncccc12 [Compound 10]",
    "pKi": 3.25
  }
]

====

# targetOrSystem: AKR1C2 (Homo sapiens, UniProt P52895)
# Construct: made in house
# Sequence (P52895 1-323): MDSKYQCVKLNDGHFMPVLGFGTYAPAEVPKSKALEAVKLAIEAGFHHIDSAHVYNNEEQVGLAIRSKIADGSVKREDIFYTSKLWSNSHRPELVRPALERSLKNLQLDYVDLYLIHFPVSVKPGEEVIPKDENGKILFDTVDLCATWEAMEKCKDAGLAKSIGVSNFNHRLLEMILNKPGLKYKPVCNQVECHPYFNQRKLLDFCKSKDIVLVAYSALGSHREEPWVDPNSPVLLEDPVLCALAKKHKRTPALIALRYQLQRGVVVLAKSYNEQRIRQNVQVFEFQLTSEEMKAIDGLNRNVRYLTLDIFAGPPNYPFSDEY
# protocolText: Inhibition of recombinant AKR1C2, oxidation of 1-acenaphthenol, progress-curve analysis
# Format: biochemical
# experimentalContext: AKR1C2; irreversible binding of second inhibitor molecule to E-NADH-I
quantityKind: k+3 (M⁻¹ s⁻¹)

[
  {
    "molecule": "Cc1ccc(C(C)C)cc1.[Cl-].[O-]c1c(I)cc(Cl)c2cccnc12.[Ru+2]",
    "targetOrSystem": "AKR1C2 (Homo sapiens, UniProt P52895)",
    "resultUnits": "M⁻¹ s⁻¹",
    "number": 11.1
  },
  {
    "molecule": "Cc1ccc(C(C)C)cc1.O=C(C=C([O][Ru][Cl])c1ccc2c(c1)OCO2)C(F)(F)F",
    "targetOrSystem": "AKR1C2 (Homo sapiens, UniProt P52895)",
    "resultUnits": "M⁻¹ s⁻¹",
    "number": 7.3
  },
  {
    "molecule": "CN(C)c1ccc(C(=CC(=O)C(F)(F)F)[O][Ru][Cl])cc1.Cc1ccc(C(C)C)cc1",
    "targetOrSystem": "AKR1C2 (Homo sapiens, UniProt P52895)",
    "resultUnits": "M⁻¹ s⁻¹",
    "number": 55.4
  },
  {
    "molecule": "Cc1ccc(C(C)C)cc1.O=C(C=C([O][Ru][Cl])c1ccc(I)cc1)C(F)(F)F",
    "targetOrSystem": "AKR1C2 (Homo sapiens, UniProt P52895)",
    "resultUnits": "M⁻¹ s⁻¹",
    "number": 7.7
  }
]

====

Measured k+3 accompanies every entry in the list below.
# targetOrSystem: AKR1C1 (Homo sapiens)
# Construct: made in house
# protocolText: Inhibition of recombinant AKR1C1, oxidation of 1-acenaphthenol, progress-curve analysis
# Assay type: biochemical
# experimentalContext: irreversible binding of second inhibitor molecule to E-NADH-I
# Description: To investigate the effect of ten selected ruthenium compounds, we measured their effect on the time course of oxidation of the artificial substrate 1-acenaphtenol by recombinant enzymes AKR1C1–3. […] The in vitro catalytic activity of AKR1C1–3 enzymes was determined spectrophotometrically by monitoring the increase in NADH absorbance at 340 nm (ε(λ340) = 6220 M^−1cm^−1) in the presence of the substrate 1-acenaphthenol. […]

[
  {
    "molecule": "Cc1ccc(C(C)C)cc1.O=C(C=C([O][Ru][Cl])c1ccc(I)cc1)C(F)(F)F [Compound 1]",
    "targetOrSystem": "AKR1C1 (Homo sapiens)",
    "k+3, M⁻¹ s⁻¹": 9.4
  },
  {
    "molecule": "Cc1ccc(C(C)C)cc1.[Cl-].[O-]c1c(I)cc(Cl)c2cccnc12.[Ru+2] [Compound 7]",
    "targetOrSystem": "AKR1C1 (Homo sapiens)",
    "k+3, M⁻¹ s⁻¹": 17.1
  },
  {
    "molecule": "CN(C)c1ccc(C(=CC(=O)C(F)(F)F)[O][Ru][Cl])cc1.Cc1ccc(C(C)C)cc1 [Compound 3]",
    "targetOrSystem": "AKR1C1 (Homo sapiens)",
    "k+3, M⁻¹ s⁻¹": 4.3
  },
  {
    "molecule": "Cc1ccc(C(C)C)cc1.O=C(C=C([O][Ru][Cl])c1ccc2c(c1)OCO2)C(F)(F)F [Compound 5]",
    "targetOrSystem": "AKR1C1 (Homo sapiens)",
    "k+3, M⁻¹ s⁻¹": 6.0
  }
]

====

Measured k+2 accompanies every entry in the list below.
# targetOrSystem: AKR1C1 (Homo sapiens, UniProt Q04828)
# Construct: made in house
# Sequence (Q04828 1-323): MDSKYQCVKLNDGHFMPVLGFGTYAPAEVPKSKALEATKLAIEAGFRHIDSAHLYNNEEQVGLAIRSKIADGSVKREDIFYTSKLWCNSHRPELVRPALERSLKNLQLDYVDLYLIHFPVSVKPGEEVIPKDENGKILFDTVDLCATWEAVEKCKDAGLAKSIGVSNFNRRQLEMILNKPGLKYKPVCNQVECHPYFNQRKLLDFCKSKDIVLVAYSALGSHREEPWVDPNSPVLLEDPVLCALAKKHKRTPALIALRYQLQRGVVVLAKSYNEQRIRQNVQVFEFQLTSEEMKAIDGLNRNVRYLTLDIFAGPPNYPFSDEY
# protocolText: Inhibition of recombinant AKR1C1, oxidation of 1-acenaphthenol, progress-curve analysis
# Assay type: biochemical
# experimentalContext: irreversible binding of second inhibitor molecule to E-NAD-I
quantityKind: k+2 (M⁻¹ s⁻¹)

[
  {
    "molecule": "C1N2CN3CN1CP(C2)C3.Cc1ccc(C(C)C)cc1.F[P-](F)(F)(F)(F)F.O=C(C=C([O][Ru+])c1ccc(I)cc1)C(F)(F)F",
    "resultUnits": "M⁻¹ s⁻¹",
    "number": 25.9
  },
  {
    "molecule": "CN(C)c1ccc(C(=CC(=O)C(F)(F)F)[O][Ru][Cl])cc1.Cc1ccc(C(C)C)cc1",
    "resultUnits": "M⁻¹ s⁻¹",
    "number": 31.5
  },
  {
    "molecule": "C1N2CN3CN1CP(C2)C3.Cc1ccc(C(C)C)cc1.F[P-](F)(F)(F)(F)F.O=C(C=C([O][Ru+])c1ccc2c(c1)OCO2)C(F)(F)F",
    "resultUnits": "M⁻¹ s⁻¹",
    "number": 48.8
  },
  {
    "molecule": "C1N2CN3CN1CP(C2)C3.Cc1ccc(C(C)C)cc1.F[P-](F)(F)(F)(F)F.O=[N+]([O-])c1ccc([O][Ru+])c2ncccc12",
    "resultUnits": "M⁻¹ s⁻¹",
    "number": 13.5
  },
  {
    "molecule": "CN(C)c1ccc(C(=O)C=C([O][Ru+][PH]23CN4CN(CN(C4)C2)C3)C(F)(F)F)cc1.Cc1ccc(C(C)C)cc1.F[P-](F)(F)(F)(F)F",
    "resultUnits": "M⁻¹ s⁻¹",
    "number": 1.4
  }
]

====

# Tested on: COV362 cells
# protocolText: Cell proliferation assay (alamarBlue), chemoresistant ovarian cancer cell line COV362
# Format: cell-based, human
# experimentalContext: 48 h incubation
pIC50: −log10 of the molar value.
Measured pIC50 accompanies every entry in the list below.
quantityKind: pIC50

[
  {
    "molecule": "C1N2CN3CN1CP(C2)C3.Cc1ccc(C(C)C)cc1.F[P-](F)(F)(F)(F)F.O=[N+]([O-])c1ccc([O][Ru+])c2ncccc12",
    "targetOrSystem": "COV362 cells",
    "relation": "<",
    "number": 3.70
  },
  {
    "molecule": "N.N.O=C([O-])C1(C(=O)[O-])CCC1.[Pt+2] [Carboplatin, reference compound]",
    "targetOrSystem": "COV362 cells",
    "relation": "=",
    "number": 3.57
  },
  {
    "molecule": "C1N2CN3CN1CP(C2)C3.Cc1ccc(C(C)C)cc1.F[P-](F)(F)(F)(F)F.[O-]c1c(I)cc(Cl)c2cccnc12.[Ru+2]",
    "targetOrSystem": "COV362 cells",
    "relation": "=",
    "number": 4.42
  },
  {
    "molecule": "N.N.[Cl][Pt][Cl] [Cisplatin, reference compound]",
    "targetOrSystem": "COV362 cells",
    "relation": "=",
    "number": 4.87
  }
]
